B1: IMPA1 (parent)
chain: FIGEESVAAGEKSILTDNPTWIID

Variants of: B1
run-description: protein stability index of a GFP-peptide fusion (GPS, HEK-293T) (PSI 1-6); higher = more stable;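 note: lentivirally expressed fusions sorted by FACS into six bins by GFP to DsRed ratio, PSI derived from sequencing read proportions per bin multiplied by bin number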
condition-details: c terminus: a fixed tail appended
Answer each item with its documented protein stability index.
Numbers only.

mutation_name=N18V value=2.75

Parameters: items (list). Returns: protein stability index for each item.
1. I14F
2. S13D
3. W21R

A)
1. 1.5
2. 2.44
3. 4.48

Values were extracted from the supplement of paper PMC10567573.
